Entries and their MIC
System: C. glabrata ATCC 90030
assay.name: microbe, parasite or virus in culture
Type: cell-based
particulars: ATCC 90030, pH 7
Number in µg/mL, nothing else.

A selection of reference data follows.
CC[C@H](C)C[C@H](C)CCCCCCCCC(=O)N[C@H]1C[C@@H](O)[C@@H](NCCN)NC(=O)[C@@H]2[C@@H](O)CCN2C(=O)[C@H]([C@H](O)CCNC(=O)CCNC(=O)[C@H](Cc2ccccc2)NC(=O)[C@H](CC(C)C)NC(=O)[C@H](CCSC)NC=O)NC(=O)[C@H]([C@H](O)[C@@H](O)c2ccc(O)cc2)NC(=O)[C@@H]2C[C@@H](O)CN2C(=O)[C@H]([C@@H](C)O)NC1=O
16
CC[C@H](C)C[C@H](C)CCCCCCCCC(=O)N[C@H]1C[C@@H](O)[C@@H](NCCN)NC(=O)[C@@H]2[C@@H](O)CCN2C(=O)[C@H]([C@H](O)CCNC(=O)[C@H](CCSC)NC=O)NC(=O)[C@H]([C@H](O)[C@@H](O)c2ccc(O)cc2)NC(=O)[C@@H]2C[C@@H](O)CN2C(=O)[C@H]([C@@H](C)O)NC1=O
1
CC[C@H](C)C[C@H](C)CCCCCCCCC(=O)N[C@H]1C[C@@H](O)[C@@H](NCCN)NC(=O)[C@@H]2[C@@H](O)CCN2C(=O)[C@H]([C@H](O)CCNC(=O)CCNC(=O)[C@H](Cc2ccccc2)NC(=O)[C@H](CC(C)C)NC(=O)[C@H](CCSC)NC(C)=O)NC(=O)[C@H]([C@H](O)[C@@H](O)c2ccc(O)cc2)NC(=O)[C@@H]2C[C@@H](O)CN2C(=O)[C@H]([C@@H](C)O)NC1=O
8
CC[C@H](C)C[C@H](C)CCCCCCCCC(=O)N[C@H]1C[C@@H](O)[C@@H](NCCN)NC(=O)[C@@H]2[C@@H](O)CCN2C(=O)[C@H]([C@H](O)CCNC(=O)[C@@H](N)CCCCNC(=O)[C@H](Cc2ccccc2)NC(=O)[C@H](CC(C)C)NC(=O)[C@H](CCSC)NC=O)NC(=O)[C@H]([C@H](O)[C@@H](O)c2ccc(O)cc2)NC(=O)[C@@H]2C[C@@H](O)CN2C(=O)[C@H]([C@@H](C)O)NC1=O
2

Alright, here's another compound for you.
Lab request: please report MIC under test system C. glabrata ATCC 90030 for CC[C@H](C)C[C@H](C)CCCCCCCCC(=O)N[C@H]1C[C@@H](O)[C@@H](NCCN)NC(=O)[C@@H]2[C@@H](O)CCN2C(=O)[C@H]([C@H](O)CCNC(=O)[C@H](Cc2ccccc2)NC(=O)[C@H](CC(C)C)NC(=O)[C@H](CCSC)NC=O)NC(=O)[C@H]([C@H](O)[C@@H](O)c2ccc(O)cc2)NC(=O)[C@@H]2C[C@@H](O)CN2C(=O)[C@H]([C@@H](C)O)NC1=O
4
